Consider the following pKi data for Adenosine receptor A3 (Homo sapiens, UniProt P0DMS8), collected from several reports.
Bear in mind: pKi is minus log10 of a mol/L concentration; give just that figure.

Answered examples (2):
C[C@@H](CCOc1nc(N)c2ncn([C@@H]3O[C@H](CO)[C@@H](O)[C@H]3O)c2n1)c1ccccc1 | 6.51
CNC(=O)c1cnc(NC(=O)Cc2ccccc2)n2nc(-c3ccco3)nc12 | 5.92

Give Adenosine receptor A3 (Homo sapiens, UniProt P0DMS8) pKi for CCCn1c(=O)c2c(nc(/C=C/c3ccc(OC)c(OC)c3)n2C)n(CCC)c1=O
5.60

Give the reported pKi for CCCCn1c(=O)c2c(ncn2[C@H]2[C@H](O)[C@H](O)[C@]3(C(=O)NC)C[C@H]23)n(CCCC)c1=O (system: Adenosine receptor A3 (Homo sapiens, UniProt P0DMS8)).
Sequence (P0DMS8 whole entry): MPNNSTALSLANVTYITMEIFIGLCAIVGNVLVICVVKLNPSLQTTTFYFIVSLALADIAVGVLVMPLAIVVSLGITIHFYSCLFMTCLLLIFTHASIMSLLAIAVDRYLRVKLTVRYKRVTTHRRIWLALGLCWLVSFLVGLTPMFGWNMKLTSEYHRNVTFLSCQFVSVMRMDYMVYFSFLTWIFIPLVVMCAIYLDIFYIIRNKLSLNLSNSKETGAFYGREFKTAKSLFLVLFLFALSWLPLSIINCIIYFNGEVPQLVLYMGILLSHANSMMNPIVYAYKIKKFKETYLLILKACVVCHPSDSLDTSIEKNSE
5.73

Test system Adenosine receptor A3 (Homo sapiens, UniProt P0DMS8); read-out pKi; what value for CCN(CC)c1nc2nn(C)cc2c2nc(-c3ccco3)nn12 ?
7.02

Recorded pKi for CCn1cc2c(nc(NC(=O)Nc3ccc(OC)cc3)n3nc(-c4ccco4)nc23)n1 with Adenosine receptor A3 (Homo sapiens, UniProt P0DMS8), please?
9.10

Give pKi (Adenosine receptor A3 (Homo sapiens, UniProt P0DMS8)) of the following molecule: c1ccc(Nc2nc3ncnc-3c(NC3CCCCCCC3)[nH]2)cc1
6.47

Could you share what pKi was measured for CCOC(=O)c1cnn(-c2nc(NC34CCC(CC3)C4)c3ncn([C@@H]4O[C@H](CO)[C@@H](O)[C@H]4O)c3n2)c1 , tested on Adenosine receptor A3 (Homo sapiens, UniProt P0DMS8)?
6.60
